Reported pEC50 values are given for each entry in this list.
- assay-system: T1, human PD-L1 expressed on CHO-K1 cells (Genscript, Cat #M00543) (human, UniProt Q9NZQ7 19-290)
- T1 construct: also called PD-L1 cell line
- T1 sequence (Q9NZQ7 19-290, one chain of several): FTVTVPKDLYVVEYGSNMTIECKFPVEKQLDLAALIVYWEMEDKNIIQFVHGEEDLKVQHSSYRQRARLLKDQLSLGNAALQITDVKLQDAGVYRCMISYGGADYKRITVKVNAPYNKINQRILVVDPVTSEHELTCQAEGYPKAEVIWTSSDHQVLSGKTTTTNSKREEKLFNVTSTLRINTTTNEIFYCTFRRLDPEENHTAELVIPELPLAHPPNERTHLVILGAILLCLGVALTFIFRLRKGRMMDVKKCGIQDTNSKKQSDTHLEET
- test-name: FACS, CHO-K1/human PD-L1 cells
// returns pEC50 (minus log10 of molar concentration), number only

binder	observed
25G1F9F8 (antibody, V domains shown, Mouse mAb from hybridoma culture) VH: EGQLQQSGAELVKPGASVNLSCTASGFNIKDTYIHWVKQRPDQGLEWIGRIAPTNGNAKFHPTFQGKATITADTSSNTAYLQLSSLTSEDTAVYYCTRGGIYYYGTHWYFDVWGAGTTVTVSS VL: DVLMNQTPLSLPVSLGDQASISCRSSQNIVYSDGNTYLEWYLQKPGQSPKLLIFQVSNRFSGVPDRFSGSGSGTDFTLKISRVEAEDLGFYYCFQGSHVPFTFGSGTKLEIK	7.74

Entry 53C1F3D4 (antibody, V domains shown, Mouse mAb from hybridoma culture; also called mouse 53C1F3D4) VH: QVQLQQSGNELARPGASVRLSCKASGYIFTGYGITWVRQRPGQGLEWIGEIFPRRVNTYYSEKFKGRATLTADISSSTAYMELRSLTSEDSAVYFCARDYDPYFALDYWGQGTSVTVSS VL: DIVMTQSHKFMSTSVGDRVSITCKASQDVSTAVDWYQQKPGQSPKLLIYSASYRYTGVPDRFTGSGSGTAFTFTISGEQAEDLAVYYCQQHYSIPFTFGGGTKLEIK — recorded pEC50 = 8.43
